assay: in vitro; conditions: PAMPA, pH 7.4, PAMPA Pe_avg
Positions of bridges follow the written chain, without caps; N, C: chain ends. Non-standard residues stand in square brackets, D forms with d. Residues, ends and D or L forms follow the SMILES beside them. NMeC = CN[C@@H](CS)C(=O)O; NMeA = CN[C@@H](C)C(=O)O; dAbu = CC[C@@H](N)C(=O)O; dNMeA = CN[C@H](C)C(=O)O; NEtG = CCNCC(=O)O
QUANTITY KIND: Papp at 10 µM (×10⁻⁶ cm/s)
Entry rule: numbers only, all in ×10⁻⁶ cm/s.

Input: Quickly give me recorded Papp at 10 µM for CCOC(=O)[C@@H]1CSCC(=O)N[C@H](CC)C(=O)N(C)[C@@H](C)C(=O)N[C@H](CC(C)C)C(=O)N2CCC[C@H]2C(=O)N(CC)CC(=O)N[C@@H](CC(C)C)C(=O)N(C)[C@H](C)C(=O)N[C@@H](CC(C)C)C(=O)N1C [JF206_ALD_DDLD_Ethyl] ({CH2CO}-[dAbu][NMeA][dL]P[NEtG]L[dNMeA]L[NMeC]-OEt; thioether N-9)
Output: 0.007
